# Tested on: MDA-MB-435
# test.summary: NCI tumour cell line growth inhibition, 48 h
The source made the active and inactive calls. Cut-off read from the data, not from the text of the source: active = GI50 up to about 1.1 µM and inactive = higher.
Your answer must be one of the following: active, inactive

*Q* What did the test return for CCCCCCCCCCCCN1[C@H]2CCC[C@H]2C(O)[C@@H]2CCC[C@@H]21 (stereo not given in full) ?
*A* inactive

*Q* What did the test return for "O=C(OCC(Cl)(Cl)Cl)O[C@@H]1CCCC1(c1ccccc1)c1ccccc1" ?
*A* inactive

*Q* What did the test return for "O=[N+]([O-])/C(C(Cl)=C(Cl)Cl)=C(\NCc1ccccc1)Sc1ccccc1" ?
*A* inactive

*Q* What did the test return for "CSCC[C@H]1C(=O)N=C(N)N1C(=O)OCc1ccccc1" ?
*A* inactive

*Q* What did the test return for "CCOC(=O)Cc1c(C)c2ccc(OC(C)=O)c(OC(C)=O)c2oc1=O" ?
*A* inactive

*Q* What did the test return for "COc1nc(C(=O)NNC(=O)c2nc(OC)c3ccccc3c2-c2ccccc2)c(-c2ccccc2)c2ccccc12" ?
*A* inactive

*Q* What did the test return for "O=C1/C(=C/c2ccc(Cl)c(Cl)c2)CNC/C1=C\c1ccc(Cl)c(Cl)c1" ?
*A* inactive

*Q* What did the test return for "c1ccc(-c2c(-c3[nH]c4ccccc4c3-c3ccccc3)[nH]c3ccccc23)cc1" ?
*A* inactive

*Q* What did the test return for "Oc1ccc(-c2c3c(nc4c2CCc2ccc(Br)cc2-4)-c2cc(Br)ccc2CC3)cc1" ?
*A* inactive

*Q* What did the test return for "COc1ccc(Cc2cc(OC)c(OC)c(OC)c2)cc1O" ?
*A* active

*Q* What did the test return for Nc1ncnc2nn(C3OC(CO)C(O)C3O)nc12 (stereo not given) ?
*A* inactive

*Q* What did the test return for "COc1cc(/C=C/C(=O)CC(=O)/C=C/c2ccc(O)c(OC)c2)ccc1O" ?
*A* inactive

*Q* What did the test return for "CO[C@@H](c1ccccc1)[C@H](O)[C@](O)(c1ccccc1)P(=O)(OC)OC" ?
*A* inactive

*Q* What did the test return for N#CC1C(=O)NC(=O)C(C#N)C1c1ccc(Cl)c(Cl)c1 (stereo not given) ?
*A* inactive

*Q* What did the test return for "C[C@@H]1CC(=O)C[C@@H]2CC[C@H]3[C@@H]4CC[C@H](OC(=O)c5cccc6cc7ccccc7nc56)[C@H]4CC[C@@H]3[C@H]21" ?
*A* inactive

*Q* What did the test return for CCOP(=O)(CC1OC(CO)C(O)C1O)OCC (stereo not given) ?
*A* inactive

*Q* What did the test return for O=C(CC(=O)Nc1ccccc1Cl)NNC(c1cc(/N=N/c2ccc(Br)cc2)ccc1O)P(O)O (stereo not given) ?
*A* inactive

*Q* What did the test return for "O=c1cnnc2sc(=S)[nH]n12" ?
*A* inactive

*Q* What did the test return for "COc1ccccc1C[C@@H]1OC2(C=CC(=O)C=C2)O[C@H]1Cc1ccccc1OC" ?
*A* inactive

*Q* What did the test return for "N#CC(=S)Nc1ccc(F)cc1" ?
*A* inactive

* * *

# System: HT-29
# test.summary: NCI tumour cell line growth inhibition, 48 h
Activity calls are given as the source filed them. Rule as the data show it: active = GI50 up to about 1.1 µM and inactive = higher.
Your answer must be one of the following: active, inactive

*Q* What did the test return for "Cn1nc(-c2ccccc2)c(C(=O)/C=C/c2ccc(Cl)cc2)c(N2CCCCC2)c1=O" ?
*A* inactive

*Q* What did the test return for "CN(C)CCNC(=O)c1cccc2cc3cc(O)ccc3nc12" ?
*A* active

*Q* What did the test return for "O=[N+]([O-])c1ccc(NS(=O)(=O)C(F)(F)F)cc1" ?
*A* inactive

*Q* What did the test return for "Cc1c(NC(=O)Nc2c(Cl)cccc2Cl)c(=O)n(-c2ccccc2)n1C" ?
*A* inactive

*Q* What did the test return for C/C(=N/NC(=O)c1ccccc1S(N)(=O)=O)C(CN1CCCCC1)C(C1=C(O)C2C=CC=CC2OC1=O)c1ccccc1 (stereo unspecified) ?
*A* inactive

*Q* What did the test return for CC1(O)CC2C(CC1SCCO)C2(C)C (stereo unspecified) ?
*A* inactive

*Q* What did the test return for CC(C)(C)OC(=O)NC(Cc1ccccc1)C(=O)N[C@H]1c2ccsc2/C(=N/O)[C@H]1O (stereo partly specified) ?
*A* inactive

*Q* What did the test return for COC(=O)N1C=Cc2c(c(C)c3c([nH]c4ccccc43)c2C)C1C (stereo unspecified) ?
*A* inactive

*Q* What did the test return for "O=c1[nH]nc(Cc2ccc(Cl)cc2)n1/N=C/c1cccs1" ?
*A* inactive

*Q* What did the test return for C=CCCCCC1CCC2CCC(CCCCC=C)N12 (stereo unspecified) ?
*A* inactive

*Q* What did the test return for "CSCC[C@H]1C(=O)N=C(N)N1C(=O)OCc1ccccc1" ?
*A* inactive

*Q* What did the test return for "CC(=O)NNc1nc(C)c(C(=O)NNC(=O)C(=O)Nc2ccc(C)c(C)c2)s1" ?
*A* inactive

*Q* What did the test return for COc1ccc(CC2C(=O)NC(C)C(=O)N(C)C3C(=O)N(C)C(Cc4ccc(O)c(c4)Oc4ccc(cc4)C3O)C(=O)NC(C)C(=O)NC(C)C(=O)N2C)cc1.COc1ccc(CC2C(=O)NC(C)C(=O)N(C)C3Cc4ccc(cc4)Oc4cc(ccc4O)CC(C(=O)NC(C)C(=O)NC(C)C(=O)N2C)N(C)C3=O)cc1 (stereo unspecified) ?
*A* active

*Q* What did the test return for CC(C)(C)OC(=O)NC(CSSCC(NC(=O)OC(C)(C)C)C(=O)O)C(=O)O (stereo unspecified) ?
*A* inactive

*Q* What did the test return for CC1(C)CC(O)CC(C)(C)N1O [TEMPOL HYDROXYLAMINE] ?
*A* inactive

*Q* What did the test return for CC(C)CC(N/C=C1/N=C(c2ccccc2)OC1=O)C(=O)O (stereo unspecified) ?
*A* inactive

*Q* What did the test return for "COc1ccc(/C(Cl)=C(\C=O)c2ccc(OC)c(OC)c2)cc1" ?
*A* inactive

*Q* What did the test return for "O=C1C(Nc2ccccc2)=CC2=NCCc3n[nH]c1c32" ?
*A* inactive

*Q* What did the test return for "CC(=O)c1cc2sc3ccccc3c2[nH]1" ?
*A* inactive

*Q* What did the test return for "S=C(N/N=C/c1ccccn1)N1CCCCCC1" ?
*A* active

*Q* What did the test return for "O=c1oc2c(ccc3c(O)cccc32)c2c1CCCC2" ?
*A* inactive

* * *

# System: DMS-114
# test.summary: NCI tumour cell line growth inhibition, 48 h
Activity calls are given as the source filed them. Rule as the data show it: active = GI50 up to about 1.1 µM and inactive = higher.
Your answer must be one of the following: active, inactive

*Q* What did the test return for CC(C)=CC1CCc2ccccc2N1S(=O)(=O)c1ccc(C)cc1 (stereo not drawn) ?
*A* active

*Q* What did the test return for COC(C(O)c1ccc2c(c1)OCO2)P(=O)(c1ccccc1)c1ccccc1 (stereo not drawn) ?
*A* inactive

*Q* What did the test return for COC1O[C@H]2CCN(C(=O)OCc3ccccc3)[C@H]2[C@H]1OCc1ccccc1 (stereo partly drawn) ?
*A* inactive

*Q* What did the test return for "Fc1cccc(/C=N/C23CC4CC(CC(C4)C2)C3)c1" ?
*A* inactive

*Q* What did the test return for CC(=O)C1C(=O)C(=O)N(c2ccc(Cl)cc2C)C1=O (stereo not drawn) ?
*A* inactive

*Q* What did the test return for "CCN(CC)CSc1nc2ccccc2[nH]1" ?
*A* inactive

*Q* What did the test return for "CN(C)CCNC(=O)c1cccc2c1nc(-c1cccnc1)c1ccccc12" ?
*A* inactive

*Q* What did the test return for COC(=O)C1=C(C)N(NC(N)=O)C(C)(O)C12CCOC2=O (stereo not drawn) ?
*A* inactive

*Q* What did the test return for CC(=O)NC1C(OCc2ccccc2)OC(COC(=O)CCCCCCCCCCNC(=O)CCNc2ccc([N+](=O)[O-])c3[nH]c4ccc(O)cc4c(=O)c23)C(O)C1OC(C)C(=O)N[C@H](C(=O)N[C@H](CCC(=O)O)C(N)=O)C(C)C (stereo partly drawn) ?
*A* inactive

*Q* What did the test return for "O=[N+]([O-])c1ccc(-n2nnc(C3=NCCN3)c2-c2ccccc2)cc1" ?
*A* inactive

*Q* What did the test return for "CNC(=O)OCc1nc(SC(C)C)n(C)c1COC(=O)NC" ?
*A* inactive

*Q* What did the test return for COC(=O)N1C=Cc2c(c(C)c3c([nH]c4ccccc43)c2C)C1C (stereo not drawn) ?
*A* inactive

*Q* What did the test return for "N#C/C(=C/c1ccco1)C(=O)c1ccccc1" ?
*A* inactive

*Q* What did the test return for "CS(=O)(=O)N/N=C/CN1C(=O)c2ccccc2C1=O" ?
*A* inactive

*Q* What did the test return for O=C1C2C(C(=O)N1c1ccccc1)C1([N+](=O)[O-])C=C3c4ccccc4N(C(=O)c4ccccc4)C32C2C(=O)N(c3ccccc3)C(=O)C21 (stereo not drawn) ?
*A* inactive

*Q* What did the test return for CN1c2ccccc2N(C(=O)c2ccc([N+](=O)[O-])cc2)C(CC(=O)O)c2cccn21 (stereo not drawn) ?
*A* inactive

*Q* What did the test return for "Cn1nc(-c2ccccc2)c(C(=O)/C=C/c2ccc(Cl)cc2)c(N2CCCCC2)c1=O" ?
*A* inactive

*Q* What did the test return for "O=C(NP(=O)(N1CC1)N1CC1)c1cc(I)ccc1I" ?
*A* inactive

*Q* What did the test return for "O=C1CCCCC/C=C2/CC[C@H](Sc3ccccc3)[C@@H]12" ?
*A* inactive

*Q* What did the test return for "COc1ccc(Br)c(CN2CCc3ccccc32)c1OS(=O)(=O)c1ccc(C)cc1" ?
*A* inactive

*Q* What did the test return for "O=C(CC1=NCCN1)c1ccccc1" ?
*A* inactive

*Q* What did the test return for "C\C=C/C=C/C=C/C(=O)O" ?
*A* inactive

*Q* What did the test return for "Cc1cccc(C)c1NC(=O)CCC(=O)/N=C(\N)NC#N" ?
*A* inactive

*Q* What did the test return for "Cc1c(C(=O)/C=C/c2ccccc2Cl)[n+]([O-])c2ccccc2[n+]1[O-]" ?
*A* inactive

*Q* What did the test return for NC(CCCCNCc1ccccc1)C(=O)O (stereo not drawn) ?
*A* inactive

*Q* What did the test return for N/N=C1/C(=O)N(c2ccc(Cl)cc2)C(=O)C(=O)C1c1nc2ccccc2s1 (stereo not drawn) ?
*A* inactive

*Q* What did the test return for Cc1ccc(S(=O)(=O)N/N=C(/c2nc3ccc([N+](=O)[O-])cc3nc2O)C(O)c2ccc(C(O)/C(=N\NS(=O)(=O)c3ccc(C)cc3)c3nc4ccc([N+](=O)[O-])cc4nc3O)cc2)cc1 (stereo not drawn) ?
*A* inactive

*Q* What did the test return for CC1=C(CC2C(=O)N(c3ccccc3)S(=O)(=O)NC2C)C(=O)N(c2ccccc2)S(=O)(=O)N1C (stereo not drawn) ?
*A* inactive
